Reference for the values: ChEMBL document CHEMBL4304773

Reported MIC values follow for various compounds
Tested on: Staphylococcus aureus
Experiment: Antibacterial activity against Staphylococcus aureus ATCC 25923
Format: functional

| compound | recorded result |
| --- | --- |
| Cc1ncc([N+](=O)[O-])n1CC(O)CN1C(=O)c2cccc3c(N4CCCC4)ccc(c23)C1=O (configuration not stated) | 69 to 1140 µM |
| Cc1ncc([N+](=O)[O-])n1CC(O)CN1C(=O)c2cccc3c(N4CCCCC4)ccc(c23)C1=O (configuration not stated) | 69 to 1140 µM |
| Cc1ncc([N+](=O)[O-])n1CC(O)CN1C(=O)c2cccc3c(N4CCOCC4)ccc(c23)C1=O (configuration not stated) | 69 to 1140 µM |
| Cc1ncc([N+](=O)[O-])n1CC(O)CN1C(=O)c2cccc3c(N4CCN(CC#N)CC4)ccc(c23)C1=O (configuration not stated) | 13 to 1020 µM |
| CCCCCCCCCCN1CCN(c2ccc3c4c(cccc24)C(=O)N(CC(O)Cn2c([N+](=O)[O-])cnc2C)C3=O)CC1 (configuration not stated) | 13 to 210 µM |

Lookup: Please indicate MIC recorded for Cc1ncc([N+](=O)[O-])n1CC(O)CN1C(=O)c2cccc3c(N4CCNCC4)ccc(c23)C1=O (configuration not stated)
Found: 69 to 1140 µM

Lookup: Please indicate MIC recorded for CCCCCCCCCCCCN1CCN(c2ccc3c4c(cccc24)C(=O)N(CC(O)Cn2c([N+](=O)[O-])cnc2C)C3=O)CC1 (configuration not stated)
Found: 13 to 1020 µM

----------
Test system: Helicobacter pylori
Experiment: Antibacterial activity against Helicobacter pylori
Type: functional
measure name: MIC90

| chemical string | MIC90 |
| --- | --- |
| Cc1ncc([N+](=O)[O-])n1CCOc1no[n+]([O-])c1S(=O)(=O)c1ccccc1 | 1 to 4 µg/mL |

Lookup: Please indicate MIC90 recorded for Cc1ncc([N+](=O)[O-])n1CCOc1nonc1S(=O)(=O)c1ccccc1
Found: 1 to 4 µg/mL

Lookup: Please indicate MIC90 recorded for Cc1nonc1CNCCn1c([N+](=O)[O-])cnc1C
Found: 0.5 to 32 µg/mL

Lookup: Please indicate MIC90 recorded for Cc1ncc([N+](=O)[O-])n1CCOc1nonc1-c1ccccc1
Found: 1 to 4 µg/mL

Lookup: Please indicate MIC90 recorded for Cc1ncc([N+](=O)[O-])n1CCNCc1no[n+]([O-])c1C(N)=O
Found: 0.5 to 32 µg/mL

Lookup: Please indicate MIC90 recorded for Cc1ncc([N+](=O)[O-])n1CCNCc1nonc1C(N)=O
Found: 0.5 to 32 µg/mL

Lookup: Please indicate MIC90 recorded for Cc1ncc([N+](=O)[O-])n1CCNCc1nonc1C#N
Found: 0.5 to 32 µg/mL

Lookup: Please indicate MIC90 recorded for Cc1ncc([N+](=O)[O-])n1CCNCc1no[n+]([O-])c1C#N
Found: 0.5 µg/mL

Lookup: Please indicate MIC90 recorded for Cc1ncc([N+](=O)[O-])n1CCNCc1no[n+]([O-])c1C
Found: 0.5 to 32 µg/mL

Lookup: Please indicate MIC90 recorded for Cc1ncc([N+](=O)[O-])n1CCOc1no[n+]([O-])c1-c1ccccc1
Found: 1 to 4 µg/mL

----------
System: Enterococcus faecalis
Experiment: Antibacterial activity against Enterococcus faecalis after 24 hrs
Assay type: functional
measure name: MIC

Study these solved cases before continuing.
| compound | MIC |
| --- | --- |
| C=CCOc1c(OC)cc(/C=C(\C#N)n2cc([N+](=O)[O-])nc2C)c2c1CN1CCc3cc4c(cc3C1C2)OCO4 (stereo not drawn) | 3 to 1020 µM |
| CCCCCCCCOc1c(OC)cc(/C=C(\C#N)n2cc([N+](=O)[O-])nc2C)c2c1CN1CCc3cc4c(cc3C1C2)OCO4 (stereo not drawn) | 3 to 1020 µM |

Lookup: // fetch MIC for COc1cc(/C=C(\C#N)n2cc([N+](=O)[O-])nc2C)c2c(c1OCCO)CN1CCc3cc4c(cc3C1C2)OCO4 (stereo not drawn) ; system: Enterococcus faecalis
Found: 3 to 1020 µM
